Ref: PubChem BioAssay AID1918952

# Test system: LG0703-F948-PDC complex spheroid viability
# protocolSummary: Anticancer human tumor LG0703-F948-PDC patient-derived lung adenocarcinoma cell line growth inhibition
# studyConditions: second compound 0.1 µM; first compound 0.00949 µM; stronger effect = lower value
measurementLabel: viability, T/C (%)
Quick note: give the figure in %, leave out the unit.

Previously resolved entries follow.
Nc1ncn(C2CC(O)C(CO)S2)c(=O)n1 (centres undefined) + NC1CCC(NC2CC2c2ccccc2)CC1: 107
CCN(c1cc(-c2ccc(CN3CCOCC3)cc2)cc(C(=O)NCc2c(C)cc(C)[nH]c2=O)c1C)C1CCOCC1 + NC1CCC(NC2CC2c2ccccc2)CC1: 105
Nc1ccccc1NC(=O)c1ccc(CNC(=O)OCc2cccnc2)cc1 + NC1CCC(NC2CC2c2ccccc2)CC1: 110
CCN(c1cc(-c2ccc(CN3CCOCC3)cc2)cc(C(=O)NCc2c(C)cc(C)[nH]c2=O)c1C)C1CCOCC1 + NC1CC1c1ccc(-c2cccc(O)c2)cc1: 104
Nc1ccccc1NC(=O)c1ccc(CNC(=O)OCc2cccnc2)cc1 + NC1CC1c1ccc(-c2cccc(O)c2)cc1: 96.4

q: // Input: COc1cc(C2c3cc4c(cc3C(OC3OC5COC(C)OC5C(O)C3O)C3COC(=O)C23)OCO4)cc(OC)c1O (centres undefined) + NC1CCC(NC2CC2c2ccccc2)CC1 . Output its viability, T/C only.
a: 99.9

q: // Input: O=C(C=Cc1cccc(S(=O)(=O)Nc2ccccc2)c1)NO + NC1CCC(NC2CC2c2ccccc2)CC1 . Output its viability, T/C only.
a: 103

q: // Input: NS(=O)(=O)OCC1CC(n2ccc3c(NC4CCc5ccccc54)ncnc32)CC1O (centres undefined) + NC1CCC(NC2CC2c2ccccc2)CC1 . Output its viability, T/C only.
a: 106

q: // Input: Nc1ccn(C2OC(CO)C(O)C2(F)F)c(=O)n1 (centres undefined) + NC1CCC(NC2CC2c2ccccc2)CC1 . Output its viability, T/C only.
a: 41.8

###

# Tested on: LG0703-F948-PDC complex spheroid viability
# protocolSummary: Anticancer human tumor LG0703-F948-PDC cell line growth inhibition; active = viability on the fitted dose curve at most 10% of control; inactive = the rest;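 also: spheroids exposed to agents for seven days before readout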
# studyConditions: second compound 3.16 µM; first compound 0.0949 µM
In this exercise, the only acceptable responses are active, inactive

For orientation, consider the following solved cases.
CCN(c1cc(-c2ccc(CN3CCOCC3)cc2)cc(C(=O)NCc2c(C)cc(C)[nH]c2=O)c1C)C1CCOCC1 + NC1CCC(NC2CC2c2ccccc2)CC1: inactive
CCc1c2c(nc3ccc(O)cc13)-c1cc3c(c(=O)n1C2)COC(=O)[C@]3(O)CC + NC1CCC(NC2CC2c2ccccc2)CC1: active
CCc1c2c(nc3ccc(O)cc13)-c1cc3c(c(=O)n1C2)COC(=O)[C@]3(O)CC + NC1CC1c1ccc(-c2cccc(O)c2)cc1: active

Shifting focus to the compound that follows.
q: // return assay outcome for COc1cc(C2c3cc4c(cc3C(OC3OC5COC(C)OC5C(O)C3O)C3COC(=O)C23)OCO4)cc(OC)c1O (centres undefined) + NC1CC1c1ccc(-c2cccc(O)c2)cc1
a: inactive

###

# System: LG0703-F948-PDC complex spheroid viability
# protocolSummary: Anticancer human tumor LG0703-F948-PDC cell line growth inhibition;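 also: spheroids exposed to agents for seven days before readout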
# studyConditions: curve of first compound; second compound 0.1 µM
measurementLabel: pIC50
To interpret pIC50, take it as minus log10 of a concentration measured in moles per litre.

Previously resolved entries follow.
CC1(C)CCC(CN2CCN(c3ccc(C(=O)NS(=O)(=O)c4ccc(NCC5CCOCC5)c([N+](=O)[O-])c4)c(Oc4cnc5[nH]ccc5c4)c3)CC2)=C(c2ccc(Cl)cc2)C1 + NC1CC1c1ccc(-c2cccc(O)c2)cc1: 5.57
CC1COCCN1c1cc(C2(S(C)(=N)=O)CC2)nc(-c2ccnc3[nH]ccc23)n1 (configuration not stated) + NC1CCC(NC2CC2c2ccccc2)CC1: 5.30
CCc1c2c(nc3ccc(O)cc13)-c1cc3c(c(=O)n1C2)COC(=O)[C@]3(O)CC + NC1CC1c1ccc(-c2cccc(O)c2)cc1: 8.92
CC1COCCN1c1cc(-c2ccnn2C)c2ccnc(-c3ccn[nH]3)c2n1 (configuration not stated) + NC1CCC(NC2CC2c2ccccc2)CC1: 7.36

Turning now to a further compound:
q: // Input: O=C(C=Cc1cccc(S(=O)(=O)Nc2ccccc2)c1)NO + NC1CC1c1ccc(-c2cccc(O)c2)cc1 . Output its pIC50 only.
a: 7.21
